Here, each record is paired with measured MDR1-MDCK efflux ratio data.
MEASURED QUANTITY: MDR1-MDCK efflux ratio

> print(dat)
                                    molecule       measured.quantity  recorded.measurement
 1              O=C(CN1CCc2ccccc21)N1CCNC1=O  MDR1-MDCK efflux ratio                  0.72
 2  Cc1ccc(N2CCN(C(=O)c3c(C)nc4sccn34)CC2=O)cc1  MDR1-MDCK efflux ratio                  6.72
 3                      COc1cc2nc(N)sc2cc1OC  MDR1-MDCK efflux ratio                 0.668
 4        CN(C)c1ccc2c(c1)Sc1cc(N(C)C)ccc1N2  MDR1-MDCK efflux ratio                  6.59
 5  O=C(NCCNc1ncccc1C(F)(F)F)c1cnc2ccccn2c1=O  MDR1-MDCK efflux ratio                  1.09
 6   COc1ccc2cc(C(=O)NCc3nnc4n3CCCCC4)ccc2c1  MDR1-MDCK efflux ratio                  35.2
 7                 CCc1sc(N)nc1-c1ccc(OC)cc1  MDR1-MDCK efflux ratio                 0.563
 8  COc1cccc(O[C@H]2CCN(C(=O)c3cc(-c4ccc(F)cc4)on3)CC[C@@H]2O)c1  MDR1-MDCK efflux ratio                 0.882
 9             COc1cc(CNc2nc3ccccc3nc2C)ccn1  MDR1-MDCK efflux ratio                 0.664
10           COc1ccccc1-c1nn(-c2ccccc2)cc1CO  MDR1-MDCK efflux ratio                 0.418
11            CCN1CCC(Nc2nc(C)cc(C)c2C#N)CC1  MDR1-MDCK efflux ratio                  1.24
12  O=C(c1n[nH]c2c1COCC2)N1CCC2(C=Cc3ccccc32)CC1  MDR1-MDCK efflux ratio                   1.5
13   COc1ccc(COc2ccc(Cc3cnc(N)nc3N)cc2OC)cc1  MDR1-MDCK efflux ratio                    11
14  COc1ccc(C(=O)Cn2c(=O)n(-c3ccccc3F)c3nc(C)nc(C(N)=O)c32)cc1  MDR1-MDCK efflux ratio                  1.46
15              COCc1ccc(SCC(=O)NC2CCCC2)cc1  MDR1-MDCK efflux ratio                 0.714
16        c1cnc(N2CC(c3nc4ccccc4[nH]3)C2)nc1  MDR1-MDCK efflux ratio                  3.96
17       CCc1ccc(-c2nccn2Cc2c(C)nn(CC)c2C)o1  MDR1-MDCK efflux ratio                  3.28
18  CCc1c[nH]c2ncnc(N3CCC(CN4CCN(C)CC4)CC3)c12  MDR1-MDCK efflux ratio                  8.23
19             CC(C)CCN1CCC(CNS(C)(=O)=O)CC1  MDR1-MDCK efflux ratio                  2.43
20         Cc1nc(C)c(CNc2cnn(-c3ccccc3)c2)s1  MDR1-MDCK efflux ratio                 0.521
21  CC(C(=O)Nc1ccccc1)N1CCCN(c2nccs2)CC1 (stereo not drawn)  MDR1-MDCK efflux ratio                 0.926
22          CN(C(=O)OC(C)(C)C)c1ccc2ccccc2n1  MDR1-MDCK efflux ratio                 0.472
23              O=C(O)c1csc(Cc2ccc(Cl)cc2)n1  MDR1-MDCK efflux ratio                   0.4
